TARGET_UNDER_TEST: MAGL (recombinant wild-type) (Homo sapiens)
Sequence (Q99685 1-303): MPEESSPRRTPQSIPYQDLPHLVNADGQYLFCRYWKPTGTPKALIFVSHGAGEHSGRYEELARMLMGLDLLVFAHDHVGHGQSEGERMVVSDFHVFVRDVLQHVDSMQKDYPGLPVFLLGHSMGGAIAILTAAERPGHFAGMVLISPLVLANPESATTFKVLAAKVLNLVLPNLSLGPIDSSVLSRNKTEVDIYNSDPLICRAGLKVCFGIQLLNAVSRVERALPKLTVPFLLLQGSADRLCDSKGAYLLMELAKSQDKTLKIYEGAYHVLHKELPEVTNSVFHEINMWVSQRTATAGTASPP
EXPERIMENT_SUMMARY: 4-NPA assay: MAGL inhibitory activity by hydrolysis of 4-nitrophenylacetate, absorbance at 405 nm
EXPERIMENTAL_PARAMETERS: 4-NPA assay (values without footnote [b])
Measured log10(IC50), listed per entry for reference.
Heads up: the numbers are on a log10 scale; they represent IC50 in µM.

# count of solved cases: 2
{"MOLECULE": "CC(C)(C)Cc1nc(-c2ccc(C(=O)N3CCN(c4nc5nccc(Cl)c5o4)CC3)cc2)no1 [Example 9]", "READOUT_VALUE": -1.57}
{"MOLECULE": "CC(C)(C)c1ncn(-c2ccc(C(=O)N3CCN(c4nc5nc(Cl)ccc5o4)CC3)cc2)n1 [Example 72]", "READOUT_VALUE": -1.57}

input: What value of log10(IC50) has been recorded for this entry: Cc1ccc2oc(N3CCN(C(=O)c4ccc(-c5noc(C6(C)CC6)n5)cc4)CC3)nc2n1 [Example 51]
output: -1.17

input: What value of log10(IC50) has been recorded for this entry: Cc1ccc2oc(N3CCN(C(=O)c4ccc(N5CC(Oc6ccccc6)C5)cc4)CC3)nc2n1 [Example 198]
output: -1.34

input: What value of log10(IC50) has been recorded for this entry: Cc1ccc2oc(N3CCN(C(=O)c4cnc(N5CC(OC(C)C(F)(F)F)C5)nc4)CC3)nc2n1 (stereo not shown) [Example 219]
output: -0.66

input: What value of log10(IC50) has been recorded for this entry: Cc1ccc2oc(N3CCN(C(=O)c4cnc(N5CCC6(C5)CC6(F)F)c(C)c4)CC3)nc2n1 (stereo not shown) [Example 225]
output: -0.61

input: What value of log10(IC50) has been recorded for this entry: CC(C)(C)Cc1nc(-c2ccc(C(=O)N3CCN(c4nc5ncccc5o4)CC3)cc2)no1 [Example 13]
output: -1.43
